target: human FLT3 on transfected CHO cells (human) (UniProt P36888); assay: FACS, scFv on CHO-human FLT3 cells pre-incubated with FLT3 ligand (competitor)

binder | median [+ligand]/median [w/o ligand]*100
FL-33 (scFv) scFv: QVTLKESGPVLVKPTETLTLTCTVSGFSLRNARMGVSWIRQPPGKTLEWLAHIFSNDEKSYSTSLKSRLTISKDTSKGQVVLTMTNMDPVDTATYYCARIVGYGSGWYGYFDYWGQGTLVTVSSGGGGSGGGGSGGGGSDIQMTQSPSSLSASVGDRVTITCRASQGIGDDLGWYQQIPGKAPKRLIYATSVLQSGVPSRFSGSGSGTEFTLTISSLQPEDFATYYCLQHNSYPLTFGGGTKLEIK | > 75%
FL-1 (scFv) scFv: QVTLKESGPVLVKPTETLTLTCTVSGFSLINARMGVSWIRQPPGKALEWLAHIFSNAEKSYRTSLKSRLTISKDTSKSQVVLTMTNMDPVDTATYYCARIPGYGGNGDYHYYGMDVWGQGTTVTVSSGGGGSGGGGSGGGGSDIQMTQSPSSLSASLGDRVTITCRASQGIRNDLGWYQQKPGKAPKRLIYASSTLQSGVPSRFSGSGSGTEFTLTISSLQPEDFATYYCLQHNNFPWTFGQGTKVEIK | > 75%
